# testedTarget: Platelet-activating factor acetylhydrolase IB subunit alpha2 (Homo sapiens) (UniProt P68402)
# Sequence (P68402 whole entry, looked up): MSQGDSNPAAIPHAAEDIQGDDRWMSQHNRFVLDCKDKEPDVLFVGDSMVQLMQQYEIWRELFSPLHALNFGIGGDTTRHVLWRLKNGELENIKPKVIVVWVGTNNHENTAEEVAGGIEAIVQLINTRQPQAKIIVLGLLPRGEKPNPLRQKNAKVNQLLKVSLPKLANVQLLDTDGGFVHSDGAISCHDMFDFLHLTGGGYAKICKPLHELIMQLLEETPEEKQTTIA
# assayNotes: inhibition of human PAFAH1B2 catalytic subunit – biochemical, fluorescence polarization, FP-rhodamine probe, triplicate, confirmation (AID 493034);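 note: 0% = enzyme with DMSO and 100% = wells lacking PAFAH1B2 protein; inhibitors lower polarization by leaving the probe unbound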
# measurementParameters: recombinant PAFAH1B2, FP-rhodamine probe fluorescence polarization; at 3.39 µM; active compounds read high
The campaign covered roughly 2,400 compounds. About 2,200 (92%) were called active. So high a share suggests a set chosen from earlier hits. Some of the results follow.
inhibition for assorted molecules
resultType: inhibition (%)

>>> observed("O=C(CN1CCN(S(=O)(=O)c2ccc(Br)s2)CC1)NC1CCCCC1")
22.8
>>> observed("CC(=O)NC(Cc1c[nH]c2ccccc12)C(=O)OCC(=O)N1CCN(S(=O)(=O)c2ccc(Cl)cc2)CC1 (stereo not given)")
84.9
>>> observed("O=C1C(c2ccccc2)NC(=S)N1C1CCCCC1 (stereo not given)")
20.2
>>> observed("CC(C(=O)Nc1ccccc1-c1ccccc1)N1CCN(S(=O)(=O)c2ccccc2)CC1 (stereo not given)")
22
>>> observed("CCCCCCCCN1[C@@H](CC(=O)O)c2ccc(C(F)(F)F)cc2S1(=O)=O")
21.7
>>> observed("Nc1scc(-c2ccncc2)c1Cl")
91.5
>>> observed("N=c1c(S(=O)(=O)c2ccc(Cl)cc2)cc2c(=O)n3ccccc3nc2n1CCN1CCOCC1")
22.3
>>> observed("Cc1ccc(NC(=O)O/N=C/c2ccc(Br)cc2)cc1")
15.5
>>> observed("CC(Sc1ccc(S(=O)(=O)N2CCN(C)CC2)cn1)C(=O)NC1(C#N)CCCCC1 (stereo not given)")
22.4
>>> observed("CN1CCN(S(=O)(=O)c2ccc(Sc3nnnn3-c3ccccc3)c([N+](=O)[O-])c2)CC1")
41.1
